Biological target: PKR(R510Q) (Homo sapiens, UniProt P30613, R510Q)
Sequence (P30613 whole entry R510Q): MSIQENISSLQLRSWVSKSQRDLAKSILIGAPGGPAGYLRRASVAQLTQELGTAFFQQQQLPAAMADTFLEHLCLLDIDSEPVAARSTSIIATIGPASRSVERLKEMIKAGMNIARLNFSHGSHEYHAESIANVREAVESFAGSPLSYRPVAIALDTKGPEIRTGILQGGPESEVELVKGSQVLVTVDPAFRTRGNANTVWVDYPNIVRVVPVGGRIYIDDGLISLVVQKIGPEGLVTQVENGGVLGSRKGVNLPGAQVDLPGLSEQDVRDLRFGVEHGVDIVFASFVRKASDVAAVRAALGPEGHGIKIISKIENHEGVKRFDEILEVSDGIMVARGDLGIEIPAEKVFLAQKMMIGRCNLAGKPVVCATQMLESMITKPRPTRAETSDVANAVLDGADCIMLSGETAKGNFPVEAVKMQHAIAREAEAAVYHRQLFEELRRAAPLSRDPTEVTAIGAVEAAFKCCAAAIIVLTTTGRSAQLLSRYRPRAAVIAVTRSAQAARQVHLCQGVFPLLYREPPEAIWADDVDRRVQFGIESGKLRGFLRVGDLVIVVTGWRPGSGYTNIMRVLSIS
Assay: Luminescence Biochemical Assay (Kinase Glo Plus), PKR R510Q mutant
Details: without FBP, read-out: AC50 LUM KGP woFBP AC50 μM gmean
READOUT LABEL: AC50

Q) Form field: reported AC50 of "Cc1noc(C)c1S(=O)(=O)N1CC2=C(CN(C(=O)[C@H](O)c3ccccc3)C2)C1"
A) 1 to 40 µM

Q) Now consider "O=C([C@@H]1CCCO1)N1CC2=C(C1)CN(S(=O)(=O)c1ccccn1)C2" .
A) 1 to 40 µM

Q) Now consider "COc1ccc(S(=O)(=O)N2CC3=C(CN(C(=O)[C@H](O)c4ccccc4)C3)C2)cc1F" .
A) ≤ 0.1 µM

Q) Now consider O=C(C(O)c1ccc(C(F)(F)F)cc1)N1CC2=C(C1)CN(S(=O)(=O)c1ccc(OC(F)F)cc1)C2 (stereo not shown) .
A) 0.1 to 1 µM

Q) Now consider "CC(C)Oc1cccc(CNC(=O)N2CC3=C(C2)CN(S(=O)(=O)c2ccc4ncsc4c2)C3)c1" .
A) 1 to 40 µM

More entries:
Q) Form field: reported AC50 of "O=C([C@H](O)c1ccccc1)N1CC2=C(C1)CN(S(=O)(=O)c1cccc(C(F)(F)F)n1)C2"
A) 1 to 40 µM

Q) Now consider "C[C@@H](C(=O)N1CC2=C(C1)CN(S(=O)(=O)c1ccc(Cl)s1)C2)c1ccccc1" .
A) 1 to 40 µM

----------
Molecular target: PKR(R510Q) (Homo sapiens, UniProt P30613, R510Q)
Assay: Luminescence Biochemical Assay (Kinase Glo Plus), PKR R510Q mutant
Settings: without FBP, 1.54 μM compound, read-out: AC50 LUM KGP woFBP % Fold@1.54 μM mean
In this section we review reported activation at 1.54 µM values for a set of compounds.

Q) Form field: reported activation at 1.54 µM of "Cc1cccc(CNC(=O)N2CC3=C(C2)CN(S(=O)(=O)c2ccc4ncsc4c2)C3)n1"
A) 250 to 50000%

Q) Now consider "Cc1cc(CNC(=O)N2CC3=C(C2)CN(S(=O)(=O)c2ccc4ncsc4c2)C3)no1" .
A) 250 to 50000%

Q) Now consider "O=C(NCc1ccc(F)cc1)N1CC2=C(C1)CN(S(=O)(=O)c1ccc(F)cc1)C2" .
A) 75 to 250%

Field: next compound
Q) Form field: reported activation at 1.54 µM of "CC(=O)Nc1ccc(S(=O)(=O)N2CC3=C(CN(C(=O)[C@H](O)c4ccccc4)C3)C2)cc1"
A) 75 to 250%

----------
Molecular target: PKR(R510Q) (Homo sapiens, UniProt P30613, R510Q)
Assay: Luminescence Biochemical Assay (Kinase Glo Plus), PKR R510Q mutant
Conditions: without FBP, read-out: AC50 LUM KGP woFBP MAX % FOLD mean
In this section we review reported Emax values for a set of compounds.

Q) Form field: reported Emax of CC(C)Oc1ccc(S(=O)(=O)N2CC3=C(CN(C(=O)[C@H](O)c4ccccc4)C3)C2)cc1 [Example 18-12]
A) 250 to 500%

Q) Now consider O=C(NCc1ncco1)N1CC2=C(C1)CN(S(=O)(=O)c1ccc3ncsc3c1)C2 [Example 21-29] .
A) 75 to 250%

Q) Now consider O=C(C1CCOCC1)N1CC2=C(C1)CN(S(=O)(=O)c1ccc3c(c1)NCCO3)C2 [Example 7-1] .
A) 250 to 500%

Q) Now consider COCCNC(=O)N1CC2=C(C1)CN(S(=O)(=O)c1ccc3c(c1)N(C)CCO3)C2 [Example 21-24] .
A) 250 to 500%

Q) Now consider O=C(Cc1ncccn1)N1CC2=C(C1)CN(S(=O)(=O)c1ccc(OC(F)F)cc1)C2 [Example 18-28] .
A) 250 to 500%

Q) Now consider O=C(Cn1cccn1)N1CC2=C(C1)CN(S(=O)(=O)c1ccc(OC(F)F)cc1)C2 [Example 18-21] .
A) 250 to 500%

Q) Now consider COc1cccc(CNC(=O)N2CC3=C(C2)CN(S(=O)(=O)c2ccc4nsnc4c2)C3)c1 [Example 20-25] .
A) 75 to 250%

Q) Now consider COc1ccc(CNC(=O)N2CC3=C(C2)CN(S(=O)(=O)c2ccc4ncsc4c2)C3)cc1 [Example 21-16] .
A) 250 to 500%

More entries:
Q) Form field: reported Emax of O=C(NCc1ccccc1F)N1CC2=C(C1)CN(S(=O)(=O)c1ccc(C(F)(F)F)nc1)C2 [Example 21-40]
A) 75 to 250%

Q) Now consider O=C([C@H](O)c1ccccc1)N1CC2=C(C1)CN(S(=O)(=O)c1ccccn1)C2 [Example 9-2] .
A) 250 to 500%

Q) Now consider COc1cc(Cl)ccc1S(=O)(=O)N1CC2=C(CN(C(=O)[C@H](O)c3ccccc3)C2)C1 [Example 18-58] .
A) 75 to 250%

----------
Molecular target: PKR(R510Q) (Homo sapiens, UniProt P30613, R510Q)
Assay: Luminescence Biochemical Assay (Kinase Glo Plus), PKR R510Q mutant
Details: without FBP, 1.54 μM compound, read-out: AC50 LUM KGP woFBP % Fold@1.54 μM mean
READOUT LABEL: activation at 1.54 µM

Q) Quick check: activation at 1.54 µM on PKR(R510Q) (Homo sapiens, UniProt P30613, R510Q), item "O=C([C@H]1CCCO1)N1CC2=C(C1)CN(S(=O)(=O)c1ccccn1)C2" ?
A) 75 to 250%

Q) Now consider "O=C(NCc1cccc(F)c1)N1CC2=C(C1)CN(S(=O)(=O)c1ccc(OC(F)F)cc1)C2" .
A) 250 to 50000%

Q) Now consider "O=C(OCC1CC1)N1CC2=C(C1)CN(S(=O)(=O)c1ccc(OC(F)F)cc1)C2" .
A) 75 to 250%

Q) Now consider "O=C([C@H](O)c1ccccc1)N1CC2=C(C1)CN(S(=O)(=O)c1cccnc1C(F)(F)F)C2" .
A) 75 to 250%

Q) Now consider "COCCNC(=O)N1CC2=C(C1)CN(S(=O)(=O)c1ccc3c(c1)N(C)CCO3)C2" .
A) 75 to 250%

Q) Now consider "NS(=O)(=O)c1cccc(S(=O)(=O)N2CC3=C(CN(C(=O)[C@H](O)c4ccccc4)C3)C2)c1" .
A) 75 to 250%

Q) Now consider "CC[C@@H](O)C(=O)N1CC2=C(C1)CN(S(=O)(=O)c1ccc3c(c1)N(C)CCO3)C2" .
A) 75 to 250%

Q) Now consider "Cc1cc(CNC(=O)N2CC3=C(C2)CN(S(=O)(=O)c2ccc(OC(F)F)cc2)C3)on1" .
A) 250 to 50000%

Q) Now consider "COc1ccc(CNC(=O)N2CC3=C(C2)CN(S(=O)(=O)c2ccc(F)cc2)C3)cc1" .
A) 250 to 50000%

Q) Now consider "COc1ccc(CNC(=O)N2CC3=C(C2)CN(S(=O)(=O)c2cccc4cnccc24)C3)cc1" .
A) 75 to 250%

More entries:
Q) Quick check: activation at 1.54 µM on PKR(R510Q) (Homo sapiens, UniProt P30613, R510Q), item "Cc1cc(CNC(=O)N2CC3=C(C2)CN(S(=O)(=O)c2ccccn2)C3)no1" ?
A) 75 to 250%

Q) Now consider "CN1CCOc2ccc(S(=O)(=O)N3CC4=C(CN(C(=O)[C@H]5CCCO5)C4)C3)cc21" .
A) 75 to 250%

Q) Now consider "O=C(NCc1ccc(F)cc1)N1CC2=C(C1)CN(S(=O)(=O)c1ccccn1)C2" .
A) 75 to 250%

Q) Now consider "COc1ccc(CNC(=O)N2CC3=C(C2)CN(S(=O)(=O)c2ccc4ncsc4c2)C3)cc1" .
A) 250 to 50000%

Q) Now consider "O=C([C@H](O)c1ccccc1)N1CC2=C(C1)CN(S(=O)(=O)c1ccc(OC(F)F)cc1)C2" .
A) 250 to 50000%

Q) Now consider "CC(C)Oc1ccc(CNC(=O)N2CC3=C(C2)CN(S(=O)(=O)c2ccc4ncsc4c2)C3)cc1" .
A) 75 to 250%

----------
In this section we review reported activation at 1.54 µM values for a set of compounds.
Molecular target: PKR(R510Q) (Homo sapiens, UniProt P30613, R510Q)
Experiment: Luminescence Biochemical Assay (Kinase Glo Plus), PKR R510Q mutant
Conditions: without FBP, 1.54 μM compound, read-out: AC50 LUM KGP woFBP % Fold@1.54 μM mean

Q) Quick check: activation at 1.54 µM on PKR(R510Q) (Homo sapiens, UniProt P30613, R510Q), item "O=C(Cc1cnccn1)N1CC2=C(C1)CN(S(=O)(=O)c1ccc(OC(F)F)cc1)C2" ?
A) 75 to 250%

Q) Now consider "O=C([C@H](O)c1ccccc1)N1CC2=C(C1)CN(S(=O)(=O)c1ccc(Cl)cc1)C2" .
A) 75 to 250%

Q) Now consider "O=C([C@H](O)c1ccc(F)cc1)N1CC2=C(C1)CN(S(=O)(=O)c1cccnc1)C2" .
A) 75 to 250%

Field: next compound
Q) Quick check: activation at 1.54 µM on PKR(R510Q) (Homo sapiens, UniProt P30613, R510Q), item "Cc1ccc(F)c(S(=O)(=O)N2CC3=C(CN(C(=O)[C@H](O)c4ccccc4)C3)C2)c1" ?
A) 250 to 50000%
